- Test system: Zymoseptoria tritici
- test: Leaf blotch of wheat (SEPTTR) disease control on wheat seedlings
- Assay type: in vivo
- condition.parameters: HV application at 100 ppm; 3 Day Curative; wheat leaf blotch
measurement.type: SEPTTR 3DC disease control rating, HV activity

Use the examples below as a reference point.
>  <compound>
CCCOC(CC)C(Oc1ccccc1)C(C)OC(=O)C(CC(C)C)NC(=O)c1nccc(OC)c1OCOC(C)=O (stereo not shown) [Cmpd 448]

>  <target.of.assay>
Zymoseptoria tritici

>  <test.value>
B (≤ 80)

$$$$
>  <compound>
CC[C@@H](Cc1ccccc1)[C@H](Oc1ccccc1)[C@H](C)OC(=O)[C@H](C)NC(=O)c1nccc(OC)c1O [Cmpd 313]

>  <target.of.assay>
Zymoseptoria tritici

>  <test.value>
B (≤ 80)

$$$$
>  <compound>
COc1ccnc(C(=O)NC(C)C(=O)OC(C)C(OC(=O)C(C)C)C(C)C)c1O (stereo not shown) [Cmpd 399]

>  <target.of.assay>
Zymoseptoria tritici

>  <test.value>
D

$$$$
>  <compound>
CC[C@H](Cc1ccccc1)[C@@H](Oc1ccccc1)[C@H](C)OC(=O)CNC(=O)c1nccc(OC)c1O [Cmpd 312]

>  <target.of.assay>
Zymoseptoria tritici

>  <test.value>
D

$$$$
>  <compound>
C=CC(OCCC)C(Oc1ccccc1)C(C)OC(=O)C(C)NC(=O)c1nccc(OC)c1OCOC(C)=O (stereo not shown) [Cmpd 455]

>  <target.of.assay>
Zymoseptoria tritici

>  <test.value>
A (> 80)

$$$$

Give me measured SEPTTR 3DC disease control rating, HV activity, please, for this compound: CC[C@H](NC(=O)c1nccc(OC)c1O)C(=O)O[C@@H](C)[C@@H](COc1ccccc1)Oc1ccccc1 [Cmpd 316]
B (≤ 80)

Dear colleague, please send me the reported SEPTTR 3DC disease control rating, HV activity for CCC(CC)[C@@H](Oc1cccc(Cl)c1)[C@H](C)OC(=O)[C@@H](NC(=O)c1nccc(OC)c1O)C(C)C [Cmpd 406] when you can.
B (≤ 80)

Consider the compound CCC(CC)C(Oc1cc(F)cc(Cl)c1)C(C)OC(=O)C(C)NC(=O)c1nccc(OC)c1O (stereo not shown) [Cmpd 423] and give its recorded SEPTTR 3DC disease control rating, HV activity.
A (> 80)

Specify reported SEPTTR 3DC disease control rating, HV activity for the compound shown: COc1ccnc(C(=O)N[C@@H](C)C(=O)O[C@@H](C)[C@@H](CC(C)C)Oc2ccccc2)c1O [Cmpd 355]
A (> 80)

Look up and state reported SEPTTR 3DC disease control rating, HV activity for CCCOC(CC)C(Oc1ccccc1)C(C)OC(=O)C(CC(C)C)NC(=O)c1nccc(OC)c1O (stereo not shown) [Cmpd 291]
D

Return value of SEPTTR 3DC disease control rating, HV activity for input CC(NC(=O)c1ncccc1O)C(=O)OC(C)C(Oc1ccccc1)C(C)C (stereo not shown) [Cmpd 424] , no commentary.
A (> 80)

Recall and state the measured SEPTTR 3DC disease control rating, HV activity for CCCOC(CC)C(Oc1ccccc1)C(C)OC(=O)C(NC(=O)c1nccc(OC)c1OCOC(C)=O)C(C)CC (stereo not shown) [Cmpd 449] .
B (≤ 80)

Check the records and state SEPTTR 3DC disease control rating, HV activity for C=CC[C@@H](OCc1ccccc1)[C@H](C)OC(=O)[C@H](C)NC(=O)c1nccc(OC)c1O [Cmpd 333]
B (≤ 80)

Give SEPTTR 3DC disease control rating, HV activity for CC[C@H](Cc1ccccc1)[C@@H](OCC(C)C)[C@H](C)OC(=O)[C@H](C)NC(=O)c1nccc(OC)c1O [Cmpd 293]
B (≤ 80)

Give recorded SEPTTR 3DC disease control rating, HV activity. COc1ccnc(C(=O)N[C@@H](C)C(=O)O[C@@H](C)[C@@H](Oc2ccccc2)C(C)C)c1O [Cmpd 347]
B (≤ 80)

Return value of SEPTTR 3DC disease control rating, HV activity for input COc1ccnc(C(=O)NC(C)C(=O)OC(C)C(Oc2cccc(C(F)(F)F)c2)C(C)C)c1O (stereo not shown) [Cmpd 433] , no commentary.
D

* * *

- Tested on: Puccinia triticina
- test: Wheat brown rust (PUCCRT) disease control on wheat seedlings
- Type: in vivo
- Set-up: key: A: > 80; B: ≤ 80; C: Not Tested; D: No Activity Observed in the Reported Assay
- condition.parameters: low volume application, 125.1 g/H, 3 Day Curative, wheat brown rust
measurement.type: LV activity at 125.1 g/H PUCCRT 3DC (disease control rating)

Below: 5 compounds and their reported LV activity at 125.1 g/H PUCCRT 3DC (disease control rating).
>  <compound>
C=CC[C@@H](Oc1ccc(C(F)(F)F)cc1)[C@H](C)OC(=O)[C@H](C)NC(=O)c1nccc(OC)c1OC(C)=O

>  <test.value>
D

$$$$
>  <compound>
COc1cc(O[C@@H]([C@H](C)OC(=O)[C@H](C)NC(=O)c2nccc(OC)c2OC(C)=O)C(C)(C)C)ccc1Cl

>  <test.value>
A (> 80)

$$$$
>  <compound>
COc1ccnc(C(=O)N[C@@H](C)C(=O)O[C@@H](C)[C@@H](CC(C)C)Oc2ccc(C)cc2Cl)c1OC(C)=O

>  <test.value>
A (> 80)

$$$$
>  <compound>
COc1ccnc(C(=O)N[C@@H](C)C(=O)O[C@@H](C)[C@H](Oc2cccc(Cl)c2)C(C)(C)C)c1OC(C)=O

>  <test.value>
A (> 80)

$$$$
>  <compound>
COc1ccnc(C(=O)N[C@@H](C)C(=O)O[C@@H](C)[C@H](Oc2ccccc2)C2CC2)c1OC(C)=O

>  <test.value>
A (> 80)

$$$$

Note LV activity at 125.1 g/H PUCCRT 3DC (disease control rating) for the compound shown: CCC[C@@H](OCC1CC1)[C@H](C)OC(=O)[C@H](C)NC(=O)c1nccc(OC)c1OC(C)=O
A (> 80)

Hello, please tell me recorded LV activity at 125.1 g/H PUCCRT 3DC (disease control rating) for this one: C=CC[C@@H](OCC(=C)C)[C@H](C)OC(=O)[C@H](C)NC(=O)c1nccc(OC)c1OCOC(C)=O
A (> 80)

Retrieve LV activity at 125.1 g/H PUCCRT 3DC (disease control rating) measured for COc1ccnc(C(=O)NC(C(=O)OC(C)C(Oc2ccccc2)C(C)C)C(F)(F)F)c1OCOC(C)=O (mixture of isomers) and print it.
A (> 80)

Identify measured LV activity at 125.1 g/H PUCCRT 3DC (disease control rating) corresponding to CCC[C@@H](Oc1ccc(Cl)c(OC)c1)[C@H](C)OC(=O)[C@H](C)NC(=O)c1nccc(OC)c1OC(C)=O
A (> 80)

Note down LV activity at 125.1 g/H PUCCRT 3DC (disease control rating) recorded for CCCC(OC(=O)C(C)NC(=O)c1nccc(OC)c1OCOC(C)=O)C(Oc1ccccc1)C(C)C (centres unmarked) [Cmpd 1093]
D

* * *

- Tested on: Puccinia triticina
- test: Wheat brown rust (PUCCRT) disease control on wheat seedlings
- Format: in vivo
- condition.parameters: low volume application, 125.1 g/H, 1 Day Protectant
measurement.type: PUCCRT 1DP, LV activity at 125.1 g/H (% Control rating)

These recorded examples may help you get a feel for the data.
>  <molecule>
CC[C@@H](CCC(C)C)[C@H](OCC1CC1)[C@H](C)OC(=O)[C@H](C)NC(=O)c1nccc(OC)c1OC(C)=O [Cmpd 504]

>  <test.value>
A (> 80)

$$$$
>  <molecule>
CC[C@@H](CCOC)[C@@H](Oc1ccccc1)[C@H](C)OC(=O)[C@H](C)NC(=O)c1nccc(OC)c1OCOC(C)=O [Cmpd 476]

>  <test.value>
A (> 80)

$$$$
>  <molecule>
COc1ccnc(C(=O)N[C@H](C(=O)O[C@@H](C)[C@H](Oc2ccc3ccccc3c2)C(C)C)C(C)C)c1OCOC(C)=O [Cmpd 633]

>  <test.value>
A (> 80)

$$$$
>  <molecule>
COc1ccnc(C(=O)NC(C)C(=O)OC(C)COC(=O)C(C)C)c1OCOC(C)=O (stereo not drawn) [Cmpd 530]

>  <test.value>
D

$$$$
>  <molecule>
CC[C@H](CC1CCCC1)[C@@H](OCC1CC1)[C@H](C)OC(=O)[C@H](C)NC(=O)c1nccc(OC)c1OCOC(C)=O [Cmpd 509]

>  <test.value>
B (≤ 80)

$$$$
>  <molecule>
CC[C@H](Cc1ccc(F)cc1)[C@@H](Oc1ccccc1)[C@H](C)OC(=O)[C@H](C)NC(=O)c1nccc(OC)c1OC(=O)C(C)C [Cmpd 473]

>  <test.value>
A (> 80)

$$$$
>  <molecule>
COc1ccnc(C(=O)N[C@@H](C)C(=O)O[C@@H](C)[C@H](Oc2cc(F)cc(Cl)c2)C(C)C)c1OC(C)=O [Cmpd 628]

>  <test.value>
A (> 80)

$$$$
>  <molecule>
COc1ccnc(C(=O)N[C@@H](C)C(=O)O[C@@H](C)[C@H](Oc2cccc3ccccc23)C(C)C)c1OCOC(C)=O [Cmpd 621]

>  <test.value>
A (> 80)

$$$$
>  <molecule>
CC[C@H](CCC(C)C)[C@@H](OCC1CC1)[C@H](C)OC(=O)[C@H](C)NC(=O)c1nccc(OC)c1OC(C)=O [Cmpd 507]

>  <test.value>
B (≤ 80)

$$$$
>  <molecule>
COc1ccnc(C(=O)N[C@@H](C)C(=O)O[C@@H](C)[C@H](Oc2ccccc2Cl)c2ccccc2)c1OC(C)=O [Cmpd 640]

>  <test.value>
A (> 80)

$$$$

Answer briefly: PUCCRT 1DP, LV activity at 125.1 g/H (% Control rating) recorded on Puccinia triticina for COc1ccnc(C(=O)N[C@@H](C)C(=O)O[C@@H](C)[C@H](Oc2cccc(Cl)c2)C(C)C)c1OCOC(=O)C(C)C [Cmpd 571]
A (> 80)

Tell me PUCCRT 1DP, LV activity at 125.1 g/H (% Control rating) of COc1ccnc(C(=O)NC(C)C(=O)OC(C)COCC(C)C)c1OCOC(C)=O (stereo not drawn) [Cmpd 533] when tested on Puccinia triticina.
D

Look up Puccinia triticina data: PUCCRT 1DP, LV activity at 125.1 g/H (% Control rating) of CCCO[C@@H]([C@H](C)OC(=O)[C@H](C)NC(=O)c1nccc(OC)c1OCOC(C)=O)[C@H](CC)Oc1ccccc1 [Cmpd 510] , then report it.
A (> 80)

Using Puccinia triticina as the test system, report measured PUCCRT 1DP, LV activity at 125.1 g/H (% Control rating) of CCC(CC)[C@@H](Oc1ccccc1Cl)[C@H](C)OC(=O)[C@@H](NC(=O)c1nccc(OC)c1OCOC(C)=O)C(C)C [Cmpd 652] .
A (> 80)

Report measured PUCCRT 1DP, LV activity at 125.1 g/H (% Control rating) on Puccinia triticina; entry: COc1ccnc(C(=O)N[C@@H](C)C(=O)O[C@@H](C)[C@H](Oc2cccc(-c3ccccc3)c2)C(C)C)c1OCOC(C)=O [Cmpd 613]
A (> 80)

Enter PUCCRT 1DP, LV activity at 125.1 g/H (% Control rating) (test system Puccinia triticina) for COCC[C@@H](OCc1ccccc1)[C@H](C)OC(=O)[C@H](C)NC(=O)c1nccc(OC)c1OCOC(C)=O [Cmpd 526]
D

Provenance of the data: patent US20180000085A1
